- assay_context: in acetonitrile, 294.65 K

[
  {
    "molecular_string": "O=C1Nc2ccccc2C1=O",
    "solubility (mole fraction)": 0.00608
  }
]

---

- assay_context: in acetonitrile, 313.15 K

[
  {
    "molecular_string": "O=C1Nc2ccccc2C1=O",
    "solubility (mole fraction)": 0.0103
  }
]

---

- assay_context: in ethyl acetate, 308.65 K
observation_type: solubility (mole fraction)

[
  {
    "molecular_string": "O=C1Nc2ccccc2C1=O",
    "observation_type": "solubility (mole fraction)",
    "result": 0.00733
  }
]

---

- assay_context: in THF, 318.35 K

[
  {
    "molecular_string": "O=C1Nc2ccccc2C1=O",
    "solubility (mole fraction)": 0.0367
  }
]

---

- assay_context: in acetonitrile, 303.15 K
observation_type: solubility (mole fraction)

[
  {
    "molecular_string": "O=C1Nc2ccccc2C1=O",
    "result": 0.00789
  }
]

---

- assay_context: in 1,4-dioxane, 298.15 K
observation_type: solubility (mole fraction)

[
  {
    "molecular_string": "O=C1Nc2ccccc2C1=O",
    "result": 0.0188
  }
]

---

- assay_context: in toluene, 313.15 K

[
  {
    "molecular_string": "O=C1Nc2ccccc2C1=O",
    "solubility (mole fraction)": 0.000819
  }
]

---

- assay_context: in dichloromethane, 290.55 K
observation_type: solubility (mole fraction)

[
  {
    "molecular_string": "O=C1Nc2ccccc2C1=O",
    "result": 0.0011
  }
]

---

- assay_context: in THF, 323.15 K

[
  {
    "molecular_string": "O=C1Nc2ccccc2C1=O",
    "solubility (mole fraction)": 0.0399
  }
]

---

- assay_context: in THF, 308.95 K

[
  {
    "molecular_string": "O=C1Nc2ccccc2C1=O",
    "solubility (mole fraction)": 0.0301
  }
]

---

- assay_context: in THF, 305.15 K

[
  {
    "molecular_string": "O=C1Nc2ccccc2C1=O",
    "solubility (mole fraction)": 0.028
  }
]
